Recorded pIC50 for the following compounds
subjectOfTest: adenyl cyclase
runDescription: Adenyl cyclase inhibition (guinea pig lung particulate fraction)
experimentalConditions: guinea pig lung particulate enzyme fraction, 1.2 mM ATP, pH 7.8, 15 min at 37°; read-out: I50 (concentration required for 50% enzyme inhibition)
Just so you know, pIC50 here is -log10 of the concentration in molar units; reply with that number alone.

The examples below pair each entry with its known result.
compound | pIC50
O=P1(O)OC[C@H]2O[C@@H](n3cnc4c(SCc5ccccc5)ncnc43)[C@H](O)[C@@H]2O1 [Compound 7c] | 2.15
CSc1ncnc2c1ncn2[C@@H]1O[C@@H]2COP(=O)(O)O[C@H]2[C@H]1O [Compound 7a] | 3.47

Now consider the entry below.
Exercise: Report its pIC50 with adenyl cyclase as the test system: CCSc1ncnc2c1ncn2[C@@H]1O[C@@H]2COP(=O)(O)O[C@H]2[C@H]1O [Compound 7b]
Solution: 3.00
